studyTarget: BTK (Homo sapiens)
Sequence (Q06187 whole entry): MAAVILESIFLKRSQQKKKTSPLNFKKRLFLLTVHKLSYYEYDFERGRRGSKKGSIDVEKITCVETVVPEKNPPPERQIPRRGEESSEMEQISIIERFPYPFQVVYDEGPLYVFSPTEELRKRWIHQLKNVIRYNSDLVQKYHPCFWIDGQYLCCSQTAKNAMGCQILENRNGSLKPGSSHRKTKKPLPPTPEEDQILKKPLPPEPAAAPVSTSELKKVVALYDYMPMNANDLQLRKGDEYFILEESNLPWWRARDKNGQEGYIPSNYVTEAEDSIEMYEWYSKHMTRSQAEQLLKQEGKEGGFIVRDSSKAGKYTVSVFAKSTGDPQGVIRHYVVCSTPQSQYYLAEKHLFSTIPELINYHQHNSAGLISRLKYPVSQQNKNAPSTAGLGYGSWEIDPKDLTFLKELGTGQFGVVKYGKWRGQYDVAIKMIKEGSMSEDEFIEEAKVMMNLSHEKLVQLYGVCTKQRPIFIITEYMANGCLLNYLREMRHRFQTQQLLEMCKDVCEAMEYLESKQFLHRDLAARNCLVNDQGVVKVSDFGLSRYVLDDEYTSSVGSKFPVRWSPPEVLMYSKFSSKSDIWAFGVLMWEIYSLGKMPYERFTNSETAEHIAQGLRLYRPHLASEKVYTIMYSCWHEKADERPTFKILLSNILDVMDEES
reportedEndpoint: IC50 (nM)
Answer with a number only, understood to be in nM.

Request: Report IC50 for "C=CC(=O)N1CCC[C@@H](n2nc(-c3ccc(OCc4cccc(C)n4)c(Cl)c3)c3c(N)ncnc32)C1"
Response: 16.3

###

testDetails: Pharmacokinetic properties in rats
Format: in vivo
testConditions: rat, in vivo, iv, I.V (1mg/kg), read-out: MRT(0-t)
reportedEndpoint: MRT last (min)
Answer with a number only, understood to be in min.

Request: Report MRT last for "C=CC(=O)N1CCC[C@@H](n2nc(-c3ccc(OCc4cccc(C)n4)c(Cl)c3)c3c(N)ncnc32)C1"
Response: 10.8

###

testDetails: Pharmacokinetic properties in rats
Assay type: in vivo
testConditions: rat, in vivo, iv, I.V (1mg/kg)
reportedEndpoint: AUC(0-inf)
Reply with the number and its unit after it.

Request: Report AUC(0-inf) for C=CC(=O)N1CCC[C@@H](n2nc(-c3ccc(OCc4cccc(C)n4)c(Cl)c3)c3c(N)ncnc32)C1 [CHMFL-EGFR-26]
Response: 1190 ng·h/mL

###

testDetails: Pharmacokinetic properties in rats
Format: in vivo
testConditions: rat, in vivo, po, P.O. (10mg/kg)
reportedEndpoint: AUC(0-inf) (µg·h/mL)
Answer with a number only, understood to be in µg·h/mL.

Request: Report AUC(0-inf) for "C=CC(=O)N1CCC[C@@H](n2nc(-c3ccc(OCc4cccc(C)n4)c(Cl)c3)c3c(N)ncnc32)C1"
Response: 4.04

###

studyTarget: HER4 (Homo sapiens)
Sequence (Q15303 26-1308): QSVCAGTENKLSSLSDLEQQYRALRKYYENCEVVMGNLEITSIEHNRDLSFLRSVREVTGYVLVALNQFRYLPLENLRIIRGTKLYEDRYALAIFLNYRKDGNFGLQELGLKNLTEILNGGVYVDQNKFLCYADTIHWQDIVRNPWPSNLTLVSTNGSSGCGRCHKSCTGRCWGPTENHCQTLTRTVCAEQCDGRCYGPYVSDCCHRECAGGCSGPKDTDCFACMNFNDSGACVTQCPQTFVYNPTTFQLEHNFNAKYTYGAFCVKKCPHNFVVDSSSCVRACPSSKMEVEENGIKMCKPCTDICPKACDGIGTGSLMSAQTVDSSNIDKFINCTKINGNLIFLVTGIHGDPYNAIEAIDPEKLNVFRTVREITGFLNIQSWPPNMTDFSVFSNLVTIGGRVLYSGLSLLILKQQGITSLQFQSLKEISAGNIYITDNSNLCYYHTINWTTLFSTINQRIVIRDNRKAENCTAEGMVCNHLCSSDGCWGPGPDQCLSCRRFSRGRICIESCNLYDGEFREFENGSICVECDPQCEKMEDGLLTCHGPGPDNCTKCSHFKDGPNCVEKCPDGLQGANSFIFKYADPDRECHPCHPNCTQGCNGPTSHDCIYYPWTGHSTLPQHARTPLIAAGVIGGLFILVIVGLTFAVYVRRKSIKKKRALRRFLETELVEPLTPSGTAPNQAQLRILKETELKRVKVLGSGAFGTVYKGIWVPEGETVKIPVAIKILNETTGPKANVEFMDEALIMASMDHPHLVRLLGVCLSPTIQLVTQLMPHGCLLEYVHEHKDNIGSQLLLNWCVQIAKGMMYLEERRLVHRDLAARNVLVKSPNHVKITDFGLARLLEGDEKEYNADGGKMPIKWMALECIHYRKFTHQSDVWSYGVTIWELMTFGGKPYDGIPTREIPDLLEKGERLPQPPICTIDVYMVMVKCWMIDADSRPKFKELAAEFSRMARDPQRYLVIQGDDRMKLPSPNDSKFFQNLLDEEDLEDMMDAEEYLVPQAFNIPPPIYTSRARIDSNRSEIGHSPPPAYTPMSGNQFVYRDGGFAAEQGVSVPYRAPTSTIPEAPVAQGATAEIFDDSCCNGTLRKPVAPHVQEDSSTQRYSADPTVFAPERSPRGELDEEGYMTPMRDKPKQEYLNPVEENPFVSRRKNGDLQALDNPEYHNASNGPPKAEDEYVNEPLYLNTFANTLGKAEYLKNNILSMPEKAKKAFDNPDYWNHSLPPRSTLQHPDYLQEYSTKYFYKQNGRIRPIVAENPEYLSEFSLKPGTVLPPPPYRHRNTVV
reportedEndpoint: IC50 (nM)
Answer with a number only, understood to be in nM.

Request: Report IC50 for "C=CC(=O)N1CCC[C@@H](n2nc(-c3ccc(OCc4cccc(C)n4)c(Cl)c3)c3c(N)ncnc32)C1"
Response: 5.39
